# Tested on: CAKI-1
# test.name: NCI tumour cell line growth inhibition, 48 h
Calls of active or inactive are those of the source. Rule as the data show it: active = GI50 up to about 1.1 µM and inactive = higher.
API: response.call in class 1 for active, class 0 for inactive

Previously resolved entries follow.
# molecule, classification
rows = [
    ("COc1ccc(/C=C(\\C(C)=O)C(=O)Nc2ccccc2)cc1", "class 0"),
    ("Cc1cc([N+](=O)[O-])c(C)c2c1[nH]c1ccc(O)cc12", "class 0"),
]

Continue with the next molecule.
Assay result, entry "O=C1c2cc([N+](=O)[O-])sc2C(=O)c2c([N+](=O)[O-])csc21" — outcome?
class 1

---

# Test system: UACC-257
# test.name: NCI tumour cell line growth inhibition, 48 h
Activity calls are given as the source filed them. Rule as the data show it: active = GI50 up to about 1.1 µM and inactive = higher.
Let's look at some compounds and their measured GI50.

# example entries with known answers
# compound, readout.value
rows = [
    ("N#CC(C/C=C/c1ccccc1)NNC(=O)c1c(Cl)c(Cl)c(Cl)c(Cl)c1-c1nc2cc(C(=O)c3ccccc3)ccc2[nH]1 (centres undefined)", "25.5 µM (inactive)"),
    ("CC1C(=O)N=C2C(=CN(Cc3ccccc3)c3ccccc32)C(=O)N1C (centres undefined)", "> 100 µM (inactive)"),
    ("C[N+](C)(C)CCc1ccccc1", "> 100 µM (inactive)"),
    ("CCCN(CCC)c1c([N+](=O)[O-])cc(C(=O)N(CCO)CCO)cc1[N+](=O)[O-]", "> 100 µM (inactive)"),
    ("C=C1C(=O)OC2C1C(OC(=O)/C(=C/C)COC(C)=O)CC1(CO1)C1C(OC(=O)/C(=C/C)CO)C=C(C)C21 (centres undefined)", "2.04 µM (inactive)"),
]

Which GI50 is reported for this compound? "Cc1cc(=O)oc2cc(OS(C)(=O)=O)ccc12"
> 100 µM (inactive)

Can you check Cc1ccc(OCC2OC(n3cnc4c(Cl)nc(N)nc43)CC2Oc2ccc(C)cc2)cc1 (centres undefined) next?
63.7 µM (inactive)

"CN(Cc1cnc2nc(N)nc(N)c2n1)c1ccc(C(=O)NCCS(=O)(=O)O)cc1" ?
> 100 µM (inactive)

Further, for CC(C)(Cl)C(Br)CC/C(=C/CBr)CBr.CC(C)(Cl)C(Br)CC/C(=C\CBr)CBr (centres undefined) ?
4.37 µM (inactive)

Please answer likewise for "CN(C)C(=S)SN(C)C(=O)Nc1ccccc1"
46.1 µM (inactive)

Record: "CN1CN(c2ccccc2)C2(CCN(CCCSc3ccccc3NC(=O)/C=C/c3ccccc3)CC2)C1=O"
1.78 µM (inactive)

// same read-out, input: "C=CCc1cc(C=C(C#N)C#N)cc(OC)c1O"
> 100 µM (inactive)

Entry to check: c1ccc2c3c([nH]c2c1)C1C2CCCCN2C(c2ccncc2)N1CC3 (centres undefined)
51.2 µM (inactive)

"O=c1c2ncn(COCCCl)c2n(-c2ccccc2)c(=S)n1-c1ccccc1" ?
> 100 µM (inactive)

Next compound: "CN(C)C(=O)N1N[C@H](c2ccccc2)[C@@H]1c1ccccc1"
> 100 µM (inactive)

Now this one: "CCOC(=O)C1=C(N2CCCC2)NC(=O)CC1=O"
> 100 µM (inactive)

Similarly, "O=C(O)c1c(Br)c(Br)c(Br)c(Br)c1C1c2ccc(O)cc2Oc2cc(O)ccc21" ?
> 100 µM (inactive)

Then "CCN(CC)c1ccc(/N=N/c2ccc(-c3nc4ccc[n+](C)c4o3)cc2)cc1" ?
7.01 µM (inactive)

Next up: O=c1nc(NC2CCCCO2)ccn1CCO (centres undefined)
> 100 µM (inactive)

Can you handle "COc1cc(Cl)c(CC(=O)c2c[nH]c3ccccc23)cc1OC" next?
> 100 µM (inactive)

Thanks! And "CC(C)c1ccc(O)c(Cc2cc(C(C)C)cc(Cc3cc(C(C)C)ccc3O)c2O)c1" ?
1.71 µM (inactive)

Same question for "Cn1ncc2c(Cl)ncnc21" please.
> 100 µM (inactive)

Another compound to check: "Nc1ncnc2c1ccn2C/C=C/CO"
> 100 µM (inactive)

Also COc1ccccc1/C=C1\CCC(CCN(C)C)(C2=CCCC2)C1=O (centres undefined) ?
17.2 µM (inactive)
